Data origin: the Immune Epitope Database (IEDB)

# system: HLA-A*02:03
# method-summary: IEDB peptide-MHC binding, purified MHC/direct/fluorescence; filed as Kd, often an IC50 or EC50 that approximates it; bounds were set here for any values at or beyond the usual limits of such assays
# assay-conditions: source organism: Orthohantavirus tulaense
readout: Kd

Ask | Please look up its Kd: "RRAYSGKQY"
Reply | ≥ 20 µM

----------
# system: HLA-B*83:01
# method-summary: IEDB peptide-MHC binding, purified MHC/competitive/fluorescence; filed as Kd, often an IC50 or EC50 that approximates it; bounds were set here for any values at or beyond the usual limits of such assays
# assay-conditions: source organism: Mycobacterium tuberculosis str. Haarlem
readout: Kd

Ask | Please look up its Kd: "YAREAGIAM"
Reply | ≥ 5 µM

----------
# system: HLA-B*18:01
# method-summary: IEDB peptide-MHC binding, purified MHC/competitive/radioactivity; filed as Kd, often an IC50 or EC50 that approximates it; bounds were set here for any values at or beyond the usual limits of such assays
# assay-conditions: source organism: Lymphocytic choriomeningitis virus (strain Armstrong)
readout: pKd
Give bare numbers, as −log10 of the molar value.

Ask | Any idea what pKd came out for "IEVALRTLLL" on HLA-B*18:01?
Reply | 5.77

----------
# system: HLA-A*31:01
# method-summary: IEDB peptide-MHC binding, purified MHC/direct/fluorescence; filed as Kd, often an IC50 or EC50 that approximates it; bounds were set here for any values at or beyond the usual limits of such assays
# assay-conditions: source organism: Corynebacterium efficiens
pKd: −log10 of the molar value.
readout: pKd

Ask | Please look up its pKd: "VQLQEYDTY"
Reply | ≤ 4.70

----------
# system: HLA-B*15:02
# method-summary: IEDB peptide-MHC binding, purified MHC/competitive/fluorescence; filed as Kd, often an IC50 or EC50 that approximates it; bounds were set here for any values at or beyond the usual limits of such assays
# assay-conditions: source organism: Listeria monocytogenes
readout: Kd

Ask | Please look up its Kd: "SLYDIITVM"
Reply | ≥ 20 µM

----------
# system: HLA-B*27:03
# method-summary: IEDB peptide-MHC binding, purified MHC/competitive/fluorescence; filed as Kd, often an IC50 or EC50 that approximates it; bounds were set here for any values at or beyond the usual limits of such assays
# assay-conditions: source organism: Vibrio cholerae 2740-80
readout: Kd

Ask | Please look up its Kd: "CERYGFPAS"
Reply | ≥ 20 µM

----------
# system: HLA-B*27:03
# method-summary: IEDB peptide-MHC binding, purified MHC/direct/fluorescence; filed as Kd, often an IC50 or EC50 that approximates it; bounds were set here for any values at or beyond the usual limits of such assays
# assay-conditions: source organism: Brucella suis 1330
pKd: −log10 of the molar value.
readout: pKd

Ask | Please look up its pKd: "ETVWPFFYA"
Reply | ≤ 4.70

----------
# system: HLA-A*68:01
# method-summary: IEDB peptide-MHC binding, purified MHC/competitive/radioactivity; filed as Kd, often an IC50 or EC50 that approximates it; bounds were set here for any values at or beyond the usual limits of such assays
# assay-conditions: source organism: Vaccinia virus WR
Assign Kd to each entry below.
Answers are plain numbers, in nM.

CAGVIEYAK :: 51.1
LIKKSDAKR :: 170

Quick request: Kd for each listed item, please.
1. SIFPANINDK
2. SSRVDRYSKK
3. ILHAYCGIK
4. AVVADLSAR
5. GFMRFFQLLR
6. VTFRERYSYK

Reply |
121
3040
1860
6.45
2410
2.83

Quick request: Kd for each listed item, please.
1. YSHLLPTQR
2. RLLIWAYLSK

Reply |
1. 25.5
2. 1470
